Values were extracted from PubChem BioAssay AID588795.

Biological target: Flap endonuclease 1 (Homo sapiens)
Experiment: qHTS Assay for the Inhibitors of Human Flap endonuclease 1 (FEN1). Also: nearly all actives have a fitted effect of over 65% in size.
Details: Recombinant FEN1 flap cleavage, fluorescence, 15 min; series mostly up to 114 µM
Experimental: The major human flap endonuclease FEN1 is an efficient structure-specific enzyme that recognizes and cleaves a 5'-unannealed DNA flap. […] Three uL of reagents (buffer in column 3 and 4 as negative control and 10 nM FEN1 in columns 1, 2, and 5-48) were dispensed into 1,536-well black solid-bottomed plate. […] The plates were then incubated for 15 min at room temperature, and 1 uL substrate (50 nM final concentration) were added to start the reaction read twice at 0 min read and 15 min on ViewLux reader. […]
About 1,400 (0.36%) of roughly 390,000 compounds were called active. Inconclusive results (about 2%) are left out. Calls follow the shape of the dose curve; as a rule, active = well fitted inhibition curve with a large enough effect; inconclusive = small, poorly fitted or top-dose-only effect; inactive = no such curve, though single readings can be large or run the other way. Many of the other results were omitted from the sample, so actives are more common in it than they were.
Classes used: active, inactive

Molecule | Label value
Cc1sc2nc(CSCC(=O)NC3CCCCC3)[nH]c(=O)c2c1C | inactive
CCOC(=O)c1c(Cc2ccc(Cl)cc2)c[nH]c1C | active
O=C(C1COc2ccccc2O1)N(Cc1cccnc1)c1nc2c(F)cc(F)cc2s1 (configuration not stated) | inactive
CN(C)c1ccc(/C=C2\C=Cc3ccccc32)cc1Br | inactive
COc1cc(OC)c(OC)cc1/C=C1\C=Cc2ccccc21 | inactive
CN(C)CCNC(=O)c1ccc(Cl)c2cc3ccccc3nc12 | active
CNCCCOc1cc2nc(N3CCCN(C)CC3)nc(NC3CCN(C)CC3)c2cc1OC | active
CCOC(=O)c1ccc(CS(=O)c2ccc(Cl)cc2)o1 (configuration not stated) | inactive
CC(C)(C)OC(=O)N1CCC(c2c(C(=O)NCc3ccccn3)cnn2-c2ccc(F)cc2)CC1 | inactive
CC[n+]1cc(C)ccc1/C=C/c1ccc(N(C)C)cc1 | inactive
Cc1ccc(-c2nnc3ccc(SCC(N)=O)nn23)cc1 | inactive
CSc1n[nH]c(-c2ccco2)n1 | inactive
CCOC(=O)N1CCN(C(=O)CNC(=O)Cc2ccc(Cl)cc2)CC1 | inactive
CSc1nnc(SCc2nc3sc(C(=O)O)c(C)c3c(=O)[nH]2)s1 | active
CCOC(=O)COc1cc(OCC(=O)OCC)c2c(=O)cc(-c3ccccc3)oc2c1 | inactive
Cc1cc(-c2n[nH]c(=S)n2/N=C/C(Br)=C/c2ccccc2)n[nH]1 | inactive
CN(C(=O)CCN1C(=O)/C(=C/c2ccccc2F)SC1=S)C1CCS(=O)(=O)C1 (configuration not stated) | inactive
O=C1CC(c2ccccc2)CC2=C1C(c1ccco1)n1nc(C(F)(F)F)nc1N2 (configuration not stated) | inactive
SCc1nc2ccc(Cl)cc2[nH]1 | inactive
O=C1C(Cl)=C(Oc2ccccc2)C(=O)c2ccccc21 | active
O=C1/C(=C\c2ccccc2Cl)SC(=S)N1CCC(=O)N1CCCc2ccccc21 | inactive
S=c1[nH]nc(-c2cc(-c3ccccc3)n[nH]2)n1/N=C/c1c2ccccc2cc2ccccc12 | active
O=C1C[C@H]2C=CCc3cccc(c32)CN1Cc1ccccc1 | inactive
COCCNC(=O)Nc1ccc2nc(-c3ccco3)c(-c3ccco3)nc2c1 | active
Clc1cccc[n+]1CCCC[n+]1ccccc1Cl | active
Cc1ccc(-c2nn(-c3ccccc3)cc2/C=C2\SC(=S)N(CCCCCC(=O)O)C2=O)o1 | active
Brc1cccc[n+]1Cc1cccc(C[n+]2ccccc2Br)c1 | inactive
CN(C)c1ccc(/C=C/c2c3ccccc3nc3ccccc23)cc1 | inactive
CC(C)(C)c1ccc(S(=O)(=O)Nc2ccc(O)c(Sc3nc4ccccc4s3)c2)cc1 | inactive
COc1ccc(/C=C/c2ccnc3ccccc23)cc1OC | inactive
S=c1[nH]nc(-c2cc(-c3ccsc3)n[nH]2)n1-c1ccccc1 | inactive
O=[N+]([O-])c1c(NCCO)cc(Sc2nc3ccccc3s2)c2nonc12 | active
COc1cc2nc(Cl)nc(NC3CC3)c2cc1OC | inactive
COc1ccc(CCn2c3c(c(=O)[nH]c2=S)CN(C(C)C)CN3)cc1OC | inactive
O=C1CCC[C@@H]2C[C@@]3(C[C@@H]4CCN1[C@H]24)Nc1ccccc1NC3=NCc1ccccc1 | inactive
CCc1cnc2c(c1SCC(=O)c1ccccc1)c(=O)n(C)c(=O)n2C | inactive
O=C(c1cnn2c1NC(=C1CC1)C=C2C(F)F)N1CCc2ccccc2C1 | inactive
